PROTOCOL_SUMMARY: gradient 5% acetonitrile 3 min, to 50% in 2 min, to 85% in 15 min, held 3 min, 100 µL/min
CONDITION_CONTEXT: column: Zorbax Extend-C18 2.1 x 50 mm; eluents: water / acetonitrile, 0.1% formic acid
READOUT_NAME: RP-LC retention time (s)

Example entries and their recorded answers appear below.
{"COMPOUND": "COc1cccc(CC(=O)N2CCC3(CC2)N=C(c2ccccc2)NO3)c1", "UOM": "s", "OBSERVED_RESULT": 802}
{"COMPOUND": "O=C(CSc1ccc(N2CCCC(C(=O)NC3CC3)C2)nn1)Nc1ccc(Cl)cc1F (stereo not given)", "UOM": "s", "OBSERVED_RESULT": 700}
{"COMPOUND": "CCOc1ccc(CN2CCN(C(=O)c3ccc(C#N)cc3)CC2)cn1", "UOM": "s", "OBSERVED_RESULT": 596}
{"COMPOUND": "COC(=O)c1ccccc1Nc1c(-c2ccccc2)nc2cnccn12", "UOM": "s", "OBSERVED_RESULT": 962}
{"COMPOUND": "COc1ccc(S(=O)(=O)NCCc2ccc(N3CCCC3)cc2)cc1OC", "UOM": "s", "OBSERVED_RESULT": 776}
{"COMPOUND": "CCCCSc1cc(=O)[nH]c(N)n1", "UOM": "s", "OBSERVED_RESULT": 700}
{"COMPOUND": "O=C(NCc1nc(-c2ccc(N3CCCC3)cc2)no1)c1ccco1", "UOM": "s", "OBSERVED_RESULT": 889}
{"COMPOUND": "COC(=O)c1c(NCCN2CCCc3ccccc32)c2cccc(Cl)c2[nH]c1=O", "UOM": "s", "OBSERVED_RESULT": 955}

a. Cc1cc(C)cc(NC(=O)N2CCC3(CC2)NC(=O)c2ccccc2O3)c1
b. COc1cccc(CCC(=O)N(C)C[C@@]23CCC[C@H]2N(C)C(=O)CC3)c1
[Q] Decide: a or b , by lowest recorded RP-LC retention time. Select an item and report its label.
[A] b
